# Tested on: RXRa homodimer (NR concentration 180 nM)
# Protocol notes: PBM binding z-score (relative to random genomic background probes); higher = stronger binding; sequences stand for … in GC…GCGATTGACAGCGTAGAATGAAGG
Value type: PBM binding z-score
Number only, please.

Past entries and their recorded results:
{"columns": ["Record sequence", "PBM binding z-score"],
 "data": [
  ["ACTATTAGTTGAGACGAGCGCAACCGATAGGTTG", -0.211],
  ["CGAACTAGGTCTAGGACAGTGAATCTCCGCACGC", -0.217],
  ["GTACCAAGGTGAATATGTCGTTGATGAGTAGGCG", 0.5]
]}

Record `TCTGCTAGGTCAGTTGGTCAGATAACGAGCTGCC` , field PBM binding z-score: 1.03

What the record says about `CCTACTGGGCCACGAAGGGTCATTGATTCAGTGA` : PBM binding z-score is 2.86

====

# System: PPARg:RXRa 270nM:90nM, anti-RXR (NR concentration 270 nM, RXRa partner concentration 90 nM)
# Protocol notes: PBM binding z-score (relative to random genomic background probes); higher = stronger binding; sequences stand for … in GC…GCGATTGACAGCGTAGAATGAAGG
Consider the following sequences and their measured PBM binding z-score readings.
Keep it simple and answer with nothing but the number.

{"columns": ["Record sequence", "PBM binding z-score"],
 "data": [
  ["AGAATGAGGTTAACATCAGGGAAACAGAATACAT", 3.34],
  ["TCTTGTAAATCAAGCAGGTTAAGAAAGCCTGAGT", 1.34],
  ["CAAACTAGTTCACGAAAGGTCAAAGTCGAATGAC", 5.37]
]}

Now consider a different sequence.
Lab note: `CAAACTAGGTCACGAAAGGTCACAGTCGAATGAC` gave PBM binding z-score of 8.34

====

# System: PPARg homodimer (NR concentration 180 nM)
# Protocol notes: PBM binding z-score (relative to random genomic background probes); higher = stronger binding; sequences stand for … in GC…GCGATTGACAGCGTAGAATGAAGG
Documented PBM binding z-score across a set of sequences
Simply state the number, no unit and no words.

{"columns": ["Record sequence", "Assayed target", "PBM binding z-score"],
 "data": [
  ["AGAACGAGGGCACGCTGACTTGATAGCAGAGTAG", "PPARg homodimer (NR concentration 180 nM)", -0.0871]
]}

Given item `AGAACGAGGGCACGCTGTGTTGATAGCAGAGTAG` , the value recorded as its PBM binding z-score is -0.372

// PBM binding z-score value for `TCAGACAGGTGAGGGTAACTCAGGTACGCAGTCG` : 0.237

The sequence listed as `CGGAGTAGGTTATGGGGCATTCAGGCAACGGTGA` has a reported PBM binding z-score of 1.28

Form: sequence = `CGAACTAGGTCATCCCGGACAGTGAATACATTGA` ; PBM binding z-score = 4.1

Summary for this sequence, `GCTTCTAGGTCAGGTTGGTCAGCTAACGGGTACG` : PBM binding z-score is 1.61

====

# Tested on: PPARg homodimer (NR concentration 180 nM)
# Protocol notes: PBM binding z-score (relative to random genomic background probes); higher = stronger binding; sequences stand for … in GC…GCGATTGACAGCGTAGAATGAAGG
Value type: PBM binding z-score

Below, 3 sequences whose answers are already recorded.
{"columns": ["Record sequence", "Value type", "Value"],
 "data": [
  ["ATCGAAAGGTCGTGAGGTGAGTATCCAGAAAGGC", "PBM binding z-score", 1.41],
  ["CGCCCAAGGTCAAAGGTCAGTGAAGAGATGACGG", "PBM binding z-score", 3.28],
  ["CAAACTAGGTCACAGAGATCAAAGTCCGTGCGTA", "PBM binding z-score", 2.16]
]}

Shifting focus to the sequence that follows.
Entry `CAAACTCGGTCAAGGTCAAAGTCGGTTTGTGCCA` : PBM binding z-score on PPARg homodimer (NR concentration 180 nM) = 3.17
